Values were extracted from paper PMC8537277.

molecular target: H1N1 hemagglutinin (Cat No.: Z03181, GenScript), full-length recombinant HA (His-Tag) (influenza A virus H1N1 (strain not stated)); test: MST; fluorescently labelled His-HA (NT647-HA) held constant, peptide in 16 1:1 serial dilutions from 50 µM; assay buffer PBS; 10 min incubation at rt; standard-treated capillaries; high MST power, 10% LED power; Monolith NT.115pico; triplicate
observable: pKd
Reminder that pKd is minus the log10 of a molar concentration.

Query: Find the recorded pKd belonging to Ac-SLAC-NH2 [peptide 9 (Ac-SLAC-NH2)] and report it.
Reply: 8.24

Query: Find the recorded pKd belonging to Ac-SAHS-NH2 [peptide 4 (Ac-SAHS-NH2)] and report it.
Reply: 8.09

Query: Find the recorded pKd belonging to Ac-ALDC-NH2 [peptide 7 (Ac-ALDC-NH2)] and report it.
Reply: 4.67

Query: Find the recorded pKd belonging to Ac-AKHS-NH2 [peptide 3 (Ac-AKHS-NH2)] and report it.
Reply: 5.51

Query: Find the recorded pKd belonging to Ac-SADC-NH2 [peptide 8 (Ac-SADC-NH2)] and report it.
Reply: 5.20

Query: Find the recorded pKd belonging to Ac-SKHA-NH2 [peptide 6 (Ac-SKHA-NH2)] and report it.
Reply: 4.94

Query: Find the recorded pKd belonging to Ac-SLDA-NH2 [peptide 10 (Ac-SLDA-NH2)] and report it.
Reply: 5.57

Query: Find the recorded pKd belonging to Ac-SKAS-NH2 [peptide 5 (Ac-SKAS-NH2)] and report it.
Reply: 5.15
